List of pIC50 values.
- SYSTEM NAME: neurokinin-1 (NK-1) receptor (Homo sapiens)
- Construct: a human glioblastoma-astrocytoma cell line that endogenously expresses the neurokinin-1 (NK-1) receptor; endogenous in cells; host or cells: U373 human glioblastoma-astrocytoma cells (membranes)
- ASSAY REMARKS: NK-1 Binding assay ([125I] Substance P competition, U373 cell membranes)
- CONDITION INFO: Table 1; U373 membranes, [125I] Substance P displacement; read-out: NK-1 IC50
- Procedure: NK-1 Binding assay. […] On the day of an experiment the membrane preparation was thawed, homogenized and diluted with NK-1 binding assay buffer to the appropriate concentration. […] The amount of radioligand bound in the presence and absence of competitor was analyzed by plotting (-)log drug concentration versus the amount of radioligand specifically bound. […]
pIC50: −log10 of the molar value.

Worked examples, 3 compounds total:
# SMILES DATA, pIC50
records = [
    ("Fc1cccc(-c2cc(COCC3(c4ccccc4)CCNCC3)cc(C(F)(F)F)c2)c1", "7.00 to 11.00"),
    ("Cc1ccncc1-c1cc(COCC2(c3ccccc3)CCNCC2)cc(C(F)(F)F)c1", "< 6.52"),
    ("COc1ncc(-c2cc(COCC3(c4ccccc4)CCNCC3)cc(C(F)(F)F)c2)cn1", "7.00 to 11.00"),
]

Inquiry: Missing value: pIC50, neurokinin-1 (NK-1) receptor (Homo sapiens), entry `Cc1ccc(-c2cc(COCC3(c4ccccc4)CCNCC3)cc(C(F)(F)F)c2)cc1` . Fill in?
Reply text: 7.00 to 11.00

Inquiry: Can you look up pIC50 on neurokinin-1 (NK-1) receptor (Homo sapiens) for `Cc1cnccc1-c1cc(COCC2(c3ccccc3)CCNCC2)cc(C(F)(F)F)c1` ?
Reply text: 7.00 to 11.00

Inquiry: Record lookup: for neurokinin-1 (NK-1) receptor (Homo sapiens), what pIC50 belongs to `FC(F)(F)c1cc(COCC2(c3ccccc3)CCNCC2)cc(-c2ccccc2)c1` ?
Reply text: 7.00 to 11.00

Inquiry: Notebook: pull reported pIC50 for neurokinin-1 (NK-1) receptor (Homo sapiens), entry `Nc1cccc(-c2cc(COCC3(c4ccccc4)CCNCC3)cc(C(F)(F)F)c2)c1`
Reply text: 7.00 to 11.00

Inquiry: # value lookup — system neurokinin-1 (NK-1) receptor (Homo sapiens), readout pIC50, item `CN1CCC(COCc2cc(-c3ccc(C#N)cc3)cc(C(F)(F)F)c2)(c2ccccc2)CC1`
Reply text: 7.00 to 11.00

Inquiry: Request - read-out pIC50 | tested on neurokinin-1 (NK-1) receptor (Homo sapiens) | compound `Cc1cc(-c2cc(COCC3(c4ccccc4)CCNCC3)cc(C(F)(F)F)c2)ccn1`
Reply text: 7.00 to 11.00

###

- SYSTEM NAME: neurokinin-1 (NK-1) receptor (Homo sapiens)
- Construct: a human glioblastoma-astrocytoma cell line that endogenously expresses the neurokinin-1 (NK-1) receptor; endogenous in cells; host or cells: U373 human glioblastoma-astrocytoma cells (membranes)
- ASSAY REMARKS: NK-1 Binding assay ([125I] Substance P competition, U373 cell membranes)
- CONDITION INFO: Table 2; U373 membranes, [125I] Substance P displacement; read-out: NK-1 IC50
ENDPOINT NAME: IC50

Some solved entries appear below for comparison.
# SMILES DATA, IC50
measured = [
    ("N#Cc1ccc(-c2cc(F)cc(COCC3(c4ccccc4)CCNCC3)c2)cc1", "0.01 to 100 nM"),
    ("COc1cccc(C2(COCc3cc(-c4ccc(C#N)cc4)cc(C(F)(F)F)c3)CCN(C)CC2)c1", "0.01 to 100 nM"),
    ("Cc1cc(-c2cc(COCC3(c4ccccc4)CCNCC3)cc(C(F)(F)F)c2)ccc1C#N", "0.01 to 100 nM"),
    ("Cc1ccc(-c2cc(COCC3(c4ccccc4)CCNCC3)cc(C(F)(F)F)c2)c2ccccc12", "> 300 nM"),
    ("COc1ccc(-c2cc(COCC3(c4ccccc4)CCNCC3)cc(C(F)(F)F)c2)c(OC)n1", "0.01 to 100 nM"),
    ("COc1cc(-c2cc(COCC3(c4ccccc4)CCN(C)CC3)cc(C(F)(F)F)c2)ccc1C#N", "0.01 to 100 nM"),
    ("CC(C)c1ccc(-c2cc(COCC3(c4ccccc4)CCNCC3)cc(C(F)(F)F)c2)cc1", "> 300 nM"),
    ("N#Cc1ccc(-c2cc(COCC3(c4ccc(F)cc4C#N)CCNCC3)cc(C(F)(F)F)c2)cc1", "0.01 to 100 nM"),
]

Then there is this compound:
Inquiry: Need IC50, item `Fc1ccc(-c2cc(COCC3(c4ccc(F)cc4)CCNCC3)cc(C(F)(F)F)c2)cc1`
Reply text: 0.01 to 100 nM

###

- SYSTEM NAME: neurokinin-1 (NK-1) receptor (Homo sapiens, UniProt P25103)
- Construct: a human glioblastoma-astrocytoma cell line that endogenously expresses the neurokinin-1 (NK-1) receptor; endogenous in cells; host or cells: U373 human glioblastoma-astrocytoma cells (membranes)
- Sequence (P25103 whole entry): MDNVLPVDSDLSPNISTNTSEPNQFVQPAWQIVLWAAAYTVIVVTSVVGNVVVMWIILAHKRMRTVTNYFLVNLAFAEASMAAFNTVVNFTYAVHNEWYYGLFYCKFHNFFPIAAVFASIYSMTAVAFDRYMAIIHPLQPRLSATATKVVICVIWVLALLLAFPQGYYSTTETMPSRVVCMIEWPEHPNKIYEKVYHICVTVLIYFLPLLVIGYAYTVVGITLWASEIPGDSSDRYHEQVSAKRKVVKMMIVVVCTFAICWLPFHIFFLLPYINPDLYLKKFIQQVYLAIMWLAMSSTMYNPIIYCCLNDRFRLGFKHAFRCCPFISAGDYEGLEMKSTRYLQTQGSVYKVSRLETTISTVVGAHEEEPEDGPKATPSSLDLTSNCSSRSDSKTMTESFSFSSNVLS
- ASSAY REMARKS: NK-1 Binding assay ([125I] Substance P competition, U373 cell membranes)
- CONDITION INFO: Table 1; U373 membranes, [125I] Substance P displacement; read-out: NK-1 IC50
pIC50: −log10 of the molar value.
Measured pIC50 of individual entries

# SMILES DATA, OBSERVED MEASUREMENT
records = [
    ("CSc1ccc(-c2cc(COCC3(c4ccccc4)CCNCC3)cc(C(F)(F)F)c2)cc1", "7.00 to 11.00"),
    ("FC(F)(F)c1cc(COCC2(c3ccccc3)CCNCC2)cc(-c2cccc3c2Sc2ccccc2S3)c1", "< 6.52"),
    ("FC(F)(F)c1cc(COCC2(c3ccccc3)CCNCC2)cc(-c2ncccn2)c1", "6.52 to 7.00"),
]

Then this molecule:
Inquiry: Entry `FC(F)(F)c1cc(COCC2(c3ccccc3)CCNCC2)cc(-c2ccc3c(c2)OCO3)c1` : reported pIC50 = ?
Reply text: 7.00 to 11.00

###

- SYSTEM NAME: neurokinin-1 (NK-1) receptor (Homo sapiens, UniProt P25103)
- Construct: a human glioblastoma-astrocytoma cell line that endogenously expresses the neurokinin-1 (NK-1) receptor; endogenous in cells; host or cells: U373 human glioblastoma-astrocytoma cells (membranes)
- ASSAY REMARKS: NK-1 Binding assay ([125I] Substance P competition, U373 cell membranes)
- CONDITION INFO: Table 2; U373 membranes, [125I] Substance P displacement; read-out: NK-1 IC50
Property: IC50; scope: individual compounds

# SMILES DATA, SYSTEM NAME, IC50
measured = [
    ("Fc1ccc(F)c(-c2cc(COCC3(c4ccccc4)CCNCC3)cc(C(F)(F)F)c2)c1", "neurokinin-1 (NK-1) receptor (Homo sapiens, UniProt P25103)", "0.01 to 100 nM"),
    ("CN(C)C(=O)c1cc(COCC2(c3ccccc3)CCNCC2)cc(-c2ccc(C#N)cc2)c1", "neurokinin-1 (NK-1) receptor (Homo sapiens, UniProt P25103)", "> 300 nM"),
    ("O=[N+]([O-])c1ccc(-c2cc(COCC3(c4ccccc4)CCNCC3)cc(C(F)(F)F)c2)cc1", "neurokinin-1 (NK-1) receptor (Homo sapiens, UniProt P25103)", "0.01 to 100 nM"),
    ("CC(C)Oc1ccc(-c2cc(COCC3(c4ccccc4)CCNCC3)cc(C(F)(F)F)c2)cc1", "neurokinin-1 (NK-1) receptor (Homo sapiens, UniProt P25103)", "100 to 300 nM"),
    ("CN1CCC(COCc2cc(-c3cc(F)c(C#N)c(F)c3)cc(C(F)(F)F)c2)(c2ccccc2)CC1", "neurokinin-1 (NK-1) receptor (Homo sapiens, UniProt P25103)", "0.01 to 100 nM"),
]

Inquiry: Find the recorded IC50 belonging to `O=[N+]([O-])c1ccccc1-c1cc(COCC2(c3ccccc3)CCNCC2)cc(C(F)(F)F)c1` and report it.
Reply text: 0.01 to 100 nM

Inquiry: # query: IC50 of entry `N#Cc1ccc(-c2cc(COCC3(c4ccc(F)cc4Br)CCNCC3)cc(C(F)(F)F)c2)cc1`
Reply text: 0.01 to 100 nM

Inquiry: // query IC50 value for entry `N#Cc1ccc(-c2cc(COCC3(c4ccc(F)c(F)c4)CCNCC3)cc(C(F)(F)F)c2)cc1`
Reply text: 0.01 to 100 nM

Inquiry: IC50 for `Fc1cc(-c2cc(COCC3(c4ccccc4)CCNCC3)cc(C(F)(F)F)c2)cc(F)c1F` ?
Reply text: 0.01 to 100 nM

Inquiry: IC50 lookup needed for `CCOC(=O)c1cccc(-c2cc(COCC3(c4ccccc4)CCNCC3)cc(C(F)(F)F)c2)c1` , thanks.
Reply text: 100 to 300 nM

Inquiry: Endpoint output: IC50 of `CN1CCC(COCc2cc(-c3ccc(C#N)cc3)cc(C(F)(F)F)c2)(c2ccccc2F)CC1` . Value?
Reply text: 0.01 to 100 nM

Inquiry: Looking for the measured IC50 of `CN1CCC(COCc2cc(-c3ccc(F)cc3)cc(C(F)(F)F)c2)(c2ccccc2)CC1` , can you help?
Reply text: 0.01 to 100 nM

Inquiry: What value of IC50 has been recorded for this entry: `N#Cc1ccc(-c2cc(COCC3(c4ccccc4)CCNCC3)cc(C(F)(F)F)c2)cc1F`
Reply text: 0.01 to 100 nM
